What follows is a record of AC50 for UniProt P11712.
Sequence (P11712 whole entry): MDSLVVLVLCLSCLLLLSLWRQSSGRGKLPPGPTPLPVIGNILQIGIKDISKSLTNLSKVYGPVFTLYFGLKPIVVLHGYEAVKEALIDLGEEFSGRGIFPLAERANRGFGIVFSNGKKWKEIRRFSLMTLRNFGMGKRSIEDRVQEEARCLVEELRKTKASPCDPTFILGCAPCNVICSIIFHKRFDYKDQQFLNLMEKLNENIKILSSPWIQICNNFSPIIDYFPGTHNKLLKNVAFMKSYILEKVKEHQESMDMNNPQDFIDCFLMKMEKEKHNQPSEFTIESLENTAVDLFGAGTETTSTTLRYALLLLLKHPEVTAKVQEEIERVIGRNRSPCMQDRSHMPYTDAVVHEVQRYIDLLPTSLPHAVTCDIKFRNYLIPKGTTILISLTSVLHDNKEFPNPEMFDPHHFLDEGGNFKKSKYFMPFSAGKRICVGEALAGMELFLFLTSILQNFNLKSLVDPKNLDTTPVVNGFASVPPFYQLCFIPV
endpoint: AC50

INSERT INTO results (compound, endpoint, measurement) VALUES
  ('Cc1c(NC(=O)C2CCN(S(=O)(=O)c3ccc(Cl)cc3)CC2)c(=O)n(-c2ccccc2)n1C', 'AC50', '14.1 µM (inconclusive)'),
  ('CCn1cc(C(=O)N/N=C(/C)c2ccc(F)cc2)c(=O)c2cc(F)c(N3CCCC3)cc21', 'AC50', '10 µM (inconclusive)'),
  ('CC1(C)OC(=O)C(/C=N/CC(O)c2ccccc2)=C(O)O1 (centres undefined)', 'AC50', '31.6 µM (inconclusive)'),
  ('CC(C)n1nnnc1SCC(=O)NCc1ccc2c(c1)OCO2', 'AC50', '25.1 µM (inconclusive)');

* * *

Biological target: Heat shock factor protein 1 (Mus musculus)
Sequence (P38532 whole entry): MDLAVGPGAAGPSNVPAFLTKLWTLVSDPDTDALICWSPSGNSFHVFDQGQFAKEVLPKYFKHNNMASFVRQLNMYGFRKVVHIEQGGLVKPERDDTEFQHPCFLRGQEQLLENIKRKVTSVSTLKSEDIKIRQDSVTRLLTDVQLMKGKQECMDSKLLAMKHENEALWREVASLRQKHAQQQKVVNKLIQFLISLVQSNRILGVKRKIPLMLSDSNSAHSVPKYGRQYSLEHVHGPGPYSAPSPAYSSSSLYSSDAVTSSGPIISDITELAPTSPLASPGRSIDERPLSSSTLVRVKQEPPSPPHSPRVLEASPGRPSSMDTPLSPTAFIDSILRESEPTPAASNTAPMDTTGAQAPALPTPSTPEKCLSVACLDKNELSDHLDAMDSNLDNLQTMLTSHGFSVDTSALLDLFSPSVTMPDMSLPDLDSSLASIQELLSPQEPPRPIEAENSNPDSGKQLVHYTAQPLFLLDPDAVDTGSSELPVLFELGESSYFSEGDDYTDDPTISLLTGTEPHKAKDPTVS
Assay: HSF1 potentiators in luciferase reporter cells, confirmation, cell-based, NIH3T3, luminescence, dose retest (AID 435004);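 further: stress induced by proteasome inhibitor MG132 added 30 min after compound; luciferase reporter driven by HSF1 response element in NIH3T3 cells; actives raise luminescence as potentiators of the MG132 stress response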
Format: functional
Calls of active or inactive are those of the source.
Classes used: active, inactive

INSERT INTO results (compound, target, classification) VALUES
  ('CCCCN(C(=O)/C=C/c1ccco1)c1c(N)n(CCC)c(=O)[nH]c1=O', 'Heat shock factor protein 1 (Mus musculus)', 'inactive'),
  ('CCCCOc1ccc(CSc2nc[nH]n2)cc1', 'Heat shock factor protein 1 (Mus musculus)', 'active'),
  ('CCOc1ccc(NC(=O)Cn2nnc(C(=O)NCc3ccco3)c2N)cc1', 'Heat shock factor protein 1 (Mus musculus)', 'inactive'),
  ('Cc1cccc(C)c1N1CCN(S(=O)(=O)c2ccc(F)cc2)CC1', 'Heat shock factor protein 1 (Mus musculus)', 'inactive'),
  ('CCOC(=O)C(CCOc1cccc(CC)c1)C(=O)OCC', 'Heat shock factor protein 1 (Mus musculus)', 'active'),
  ('CC1=C(C(=O)N2CCOCC2)C(c2c(C)cc(C)cc2C)NC(S)=N1 (stereo unspecified)', 'Heat shock factor protein 1 (Mus musculus)', 'inactive'),
  ('Cn1cc(CNC(=O)c2sc3cccc(Cl)c3c2Cl)cn1', 'Heat shock factor protein 1 (Mus musculus)', 'inactive'),
  ('COC(=O)C1(O)CC(CC(C)C)=NN1C(=O)c1ccccc1 (stereo unspecified)', 'Heat shock factor protein 1 (Mus musculus)', 'inactive'),
  ('COC(=O)Cc1ccc(NC(=O)c2ccc(C)c(C)c2)cc1', 'Heat shock factor protein 1 (Mus musculus)', 'active'),
  ('CC(=O)Nc1cccc(NC(=O)CSc2ncc(C(=O)Nc3ccccc3)c(=O)n2C)c1', 'Heat shock factor protein 1 (Mus musculus)', 'active'),
  ('CC1(C)Cc2c(C#N)c(N3CCCC3)nc(-c3ccco3)c2CO1', 'Heat shock factor protein 1 (Mus musculus)', 'inactive');

* * *

Target: UniProt P9WHJ3
Assay: Fluorescence Cell-Free Homogeneous Dose Retest to Identify Inhibitors of RecA-Intein Splicing Activity. [Related pubchem assays (depositor defined):AID2097, AID2223, AID489010, AID492950]
Assay type: functional
Counter-ions that a name gives are not always drawn. The source made the active and inactive calls.
Classes used: class 1 (active), class 0 (inactive)

INSERT INTO measurements (compound, classification) VALUES
  ('COc1ccc(Cc2nccc3cc(OC)c(OC)cc23)cc1OC [PAPAVERINE HYDROCHLORIDE]', 'class 1'),
  ('COc1ccc(/C=N/NC(=O)c2nn(-c3ccc(Cl)cc3)c(=O)c3c(N)scc23)cc1', 'class 1'),
  ('CC(=O)Nc1cccc(NC(=O)CSc2ncc(C(=O)Nc3ccccc3)c(=O)n2C)c1', 'class 1'),
  ('C/C(CC(=O)Nc1ccccc1[N+](=O)[O-])=N\NC(=O)COc1ccccc1C', 'class 1'),
  ('Nc1nn2c(-c3ccccc3)cc(O)nc2c1N=Nc1ccc(O)cc1', 'class 1'),
  ('Cc1ccc(-c2noc(-c3ccccc3C(=O)N3CCOCC3)n2)cc1', 'class 0'),
  ('O=c1cc(-c2ccccc2)[nH]n1-c1ccc([N+](=O)[O-])cc1', 'class 1'),
  ('COc1ccc(C(=O)c2c(C(F)(F)F)oc3c2C(=O)c2ccccc2C3=O)cc1', 'class 1'),
  ('O=C(O)c1ccccc1-c1ccccc1C(=O)Nc1ccc(-c2nc3cc(Cl)ccc3o2)cc1', 'class 1'),
  ('O=C(CCl)N(Cc1cccc([N+](=O)[O-])c1)c1cccc(Cl)c1', 'class 1');
